test: Fraction unbound in rat plasma at 5 uM after 4 hrs by equilibrium dialysis method
Would you mind telling me the reported fraction unbound at 4 h, 5 µM of each entry?
# print the numeric value only

Incoming: Dear colleague, I am looking for the recorded fraction unbound at 4 h, 5 µM of the following compound: CC(C)C[C@H](CC(=O)O)C(=O)N(c1nc(-c2ccccc2-c2ccc(-n3cccn3)nc2)cs1)C1CC1
Outgoing: 0.0057

Incoming: Dear colleague, I am looking for the recorded fraction unbound at 4 h, 5 µM of the following compound: O=C(O)C[C@@H](CC1CCCC1)C(=O)N(c1nc(-c2ccccc2-c2ccc(-n3cccn3)nc2)cs1)C1CC1
Outgoing: 0.0013

Incoming: Dear colleague, I am looking for the recorded fraction unbound at 4 h, 5 µM of the following compound: COc1ccc(-c2ccccc2-c2csc(N(C(=O)[C@@H](CC(=O)O)CC(C)C)C3CC3)n2)cn1
Outgoing: 0.0066

Incoming: Dear colleague, I am looking for the recorded fraction unbound at 4 h, 5 µM of the following compound: O=C(O)C[C@@H](Cc1ccccc1)C(=O)N(c1nc(-c2cc(Cl)ccc2Cl)cs1)C1CC1
Outgoing: 0.0001

Incoming: Dear colleague, I am looking for the recorded fraction unbound at 4 h, 5 µM of the following compound: COc1ccc(-c2ccc(Cl)cc2-c2csc(N(C(=O)[C@@H](CC(=O)O)Cc3ccco3)C3CC3)n2)cn1
Outgoing: 0.0026

Incoming: Dear colleague, I am looking for the recorded fraction unbound at 4 h, 5 µM of the following compound: COc1ccc(-c2ccccc2-c2csc(N(C(=O)[C@@H](CC(=O)O)CC3CCCC3)C3CC3)n2)cn1
Outgoing: 0.0006

Incoming: Dear colleague, I am looking for the recorded fraction unbound at 4 h, 5 µM of the following compound: O=C(O)C[C@@H](Cc1ccccc1)C(=O)N(c1nc(-c2ccccc2Cl)cs1)C1CC1
Outgoing: 0.0016

Incoming: Dear colleague, I am looking for the recorded fraction unbound at 4 h, 5 µM of the following compound: CC(C)[C@H](C(=O)Nc1nccs1)c1ccc(Cl)cc1
Outgoing: 0.0062

Incoming: Dear colleague, I am looking for the recorded fraction unbound at 4 h, 5 µM of the following compound: CN(C(=O)[C@@H](CC(=O)O)Cc1ccccc1)c1nc(-c2ccccc2Cl)cs1
Outgoing: 0.0008

---

Would you mind telling me the reported CL free of each entry?
test system: Rattus norvegicus; test: Unbound clearance in Sprague-Dawley rat at 1 mg/kg, iv administered as single dose by LC-MS/MS analysis; assay type: ADME, organism-based; settings: in vivo
Answer with a number only, understood to be in mL/min/kg.

Incoming: Lab note: need CL free for COc1ccc(-c2ccccc2-c2csc(N(C(=O)[C@@H](CC(=O)O)CC3CCCC3)C3CC3)n2)cn1 on Rattus norvegicus, anyone have it?
Outgoing: 2617

Incoming: Lab note: need CL free for CN(C(=O)[C@@H](CC(=O)O)Cc1ccccc1)c1nc(-c2ccccc2Cl)cs1 on Rattus norvegicus, anyone have it?
Outgoing: 738

Incoming: Lab note: need CL free for O=C(O)C[C@@H](CC1CCCC1)C(=O)N(c1nc(-c2ccccc2-c2ccc(-n3cccn3)nc2)cs1)C1CC1 on Rattus norvegicus, anyone have it?
Outgoing: 6692

Incoming: Lab note: need CL free for O=C(O)C[C@@H](Cc1ccccc1)C(=O)N(c1nc(-c2cc(Cl)ccc2Cl)cs1)C1CC1 on Rattus norvegicus, anyone have it?
Outgoing: 2800

Incoming: Lab note: need CL free for CC(C)[C@H](C(=O)Nc1nccs1)c1ccc(Cl)cc1 on Rattus norvegicus, anyone have it?
Outgoing: 6666

Incoming: Lab note: need CL free for CC(C)C[C@H](CC(=O)O)C(=O)N(c1nc(-c2ccccc2-c2ccc(-n3cccn3)nc2)cs1)C1CC1 on Rattus norvegicus, anyone have it?
Outgoing: 1091

Incoming: Lab note: need CL free for O=C(O)C[C@@H](Cc1ccccc1)C(=O)N(c1nc(-c2ccccc2Cl)cs1)C1CC1 on Rattus norvegicus, anyone have it?
Outgoing: 1044

Incoming: Lab note: need CL free for COc1ccc(-c2ccc(Cl)cc2-c2csc(N(C(=O)[C@@H](CC(=O)O)Cc3ccco3)C3CC3)n2)cn1 on Rattus norvegicus, anyone have it?
Outgoing: 2738

Incoming: Lab note: need CL free for COc1ccc(-c2ccccc2-c2csc(N(C(=O)[C@@H](CC(=O)O)CC(C)C)C3CC3)n2)cn1 on Rattus norvegicus, anyone have it?
Outgoing: 342

---

assay: Fraction unbound in mouse plasma at 5 uM after 4 hrs by equilibrium dialysis method
Class met: fraction unbound at 4 h, 5 µM at least 0.002. Class not met: fraction unbound at 4 h, 5 µM below 0.002.

Incoming: Is the recorded value of fraction unbound at 4 h, 5 µM equal to or greater than 0.002 for this compound? O=C(O)C[C@@H](CC1CCCC1)C(=O)N(c1nc(-c2ccccc2-c2ccc(-n3cccn3)nc2)cs1)C1CC1
Outgoing: not met

Incoming: Is the recorded value of fraction unbound at 4 h, 5 µM equal to or greater than 0.002 for this compound? CN(C(=O)[C@@H](CC(=O)O)Cc1ccccc1)c1nc(-c2ccccc2Cl)cs1
Outgoing: not met

Incoming: Is the recorded value of fraction unbound at 4 h, 5 µM equal to or greater than 0.002 for this compound? CC(C)C[C@H](CC(=O)O)C(=O)N(c1nc(-c2ccccc2-c2ccc(-n3cccn3)nc2)cs1)C1CC1
Outgoing: met

Incoming: Is the recorded value of fraction unbound at 4 h, 5 µM equal to or greater than 0.002 for this compound? CC(C)[C@H](C(=O)Nc1nccs1)c1ccc(Cl)cc1
Outgoing: met

Incoming: Is the recorded value of fraction unbound at 4 h, 5 µM equal to or greater than 0.002 for this compound? COc1ccc(-c2ccc(Cl)cc2-c2csc(N(C(=O)[C@@H](CC(=O)O)Cc3ccco3)C3CC3)n2)cn1
Outgoing: met

Incoming: Is the recorded value of fraction unbound at 4 h, 5 µM equal to or greater than 0.002 for this compound? O=C(O)C[C@@H](Cc1ccccc1)C(=O)N(c1nc(-c2ccccc2Cl)cs1)C1CC1
Outgoing: met

Incoming: Is the recorded value of fraction unbound at 4 h, 5 µM equal to or greater than 0.002 for this compound? COc1ccc(-c2ccccc2-c2csc(N(C(=O)[C@@H](CC(=O)O)CC3CCCC3)C3CC3)n2)cn1
Outgoing: met

Incoming: Is the recorded value of fraction unbound at 4 h, 5 µM equal to or greater than 0.002 for this compound? COc1ccc(-c2ccccc2-c2csc(N(C(=O)[C@@H](CC(=O)O)CC(C)C)C3CC3)n2)cn1
Outgoing: met

Incoming: Is the recorded value of fraction unbound at 4 h, 5 µM equal to or greater than 0.002 for this compound? O=C(O)C[C@@H](Cc1ccccc1)C(=O)N(c1nc(-c2cc(Cl)ccc2Cl)cs1)C1CC1
Outgoing: not met

---

tested on: Mus musculus; test: Dose normalized unbound AUC in C57Bl/6J mouse at 50 mg/kg, po administered via gavage as single dose by LC-MS/MS analysis; assay type: ADME, organism-based; details: in vivo
measure: fAUC/dose (µM·min)
Answer with a number only, understood to be in µM·min.

Incoming: Dear colleague, I am looking for the recorded fAUC/dose of the following compound: O=C(O)C[C@@H](Cc1ccccc1)C(=O)N(c1nc(-c2cc(Cl)ccc2Cl)cs1)C1CC1
Outgoing: 0.32

Incoming: Dear colleague, I am looking for the recorded fAUC/dose of the following compound: O=C(O)C[C@@H](Cc1ccccc1)C(=O)N(c1nc(-c2ccccc2Cl)cs1)C1CC1
Outgoing: 4.7

Incoming: Dear colleague, I am looking for the recorded fAUC/dose of the following compound: COc1ccc(-c2ccc(Cl)cc2-c2csc(N(C(=O)[C@@H](CC(=O)O)Cc3ccco3)C3CC3)n2)cn1
Outgoing: 1.2

Incoming: Dear colleague, I am looking for the recorded fAUC/dose of the following compound: O=C(O)C[C@@H](CC1CCCC1)C(=O)N(c1nc(-c2ccccc2-c2ccc(-n3cccn3)nc2)cs1)C1CC1
Outgoing: 0.53
